Biological target: FGR (human)
Assay: KINOMEscan competition binding
Conditions: compound 10.0 µM
measurement-type: kinase still bound, per cent of control (%)

- compound: "Cc1ccc(C(=O)Nc2cccc(C(F)(F)F)c2)cc1Nc1cncc(C(N)=O)c1"
  measured-result: 100
- compound: "N#Cc1c(NC(=O)c2cccc3ccccc23)sc2c1CCCC2"
  measured-result: 100
- compound: "O=C(NC1CC1)c1cccc(-c2ccc3c(NC(=O)C4CC4)n[nH]c3c2)c1"
  measured-result: 100
- compound: "Cn1c(=O)n(-c2ccc(C(C)(C)C#N)cc2)c2c3cc(-c4cnc5ccccc5c4)ccc3ncc21"
  measured-result: 100
- compound: "Cc1ccc2nc(NCCN)c3ncc(C)n3c2c1"
  measured-result: 100
- compound: "O=C(NOC[C@H](O)CO)c1ccc(F)c(F)c1Nc1ccc(I)cc1F"
  measured-result: 95
- compound: "COc1cc(N2CCN(C)CC2)ccc1Nc1nc(N)c(C(=O)c2c(Cl)cccc2Cl)s1"
  measured-result: 93
- compound: "CC[C@@H]1C(=O)N(C)c2cnc(Nc3ccc(C(=O)NC4CCN(C)CC4)cc3OC)nc2N1C1CCCC1"
  measured-result: 100
- compound: "OCCCNc1cc(-c2ccnc(Nc3cccc(Cl)c3)n2)ccn1"
  measured-result: 100
- compound: "COc1cc(C(=O)NC2CCN(C)CC2)ccc1Nc1ncc2c(n1)N(C1CCCC1)C(C)CC(=O)N2C (configuration not stated)"
  measured-result: 100
- compound: "C=CC(=O)Nc1cccc(Nc2nc(N[C@H]3CC[C@H](N(C)C)CC3)nc3c2ncn3C(C)C)c1"
  measured-result: 14
- compound: "C=CC(=O)Nc1cc(NC(=O)c2ccc(C)c(NC(=O)c3ccno3)c2)cc(C(F)(F)F)c1"
  measured-result: 63

* * *

Biological target: ERBB2 (human) (UniProt P04626)
Sequence (P04626 whole entry, looked up): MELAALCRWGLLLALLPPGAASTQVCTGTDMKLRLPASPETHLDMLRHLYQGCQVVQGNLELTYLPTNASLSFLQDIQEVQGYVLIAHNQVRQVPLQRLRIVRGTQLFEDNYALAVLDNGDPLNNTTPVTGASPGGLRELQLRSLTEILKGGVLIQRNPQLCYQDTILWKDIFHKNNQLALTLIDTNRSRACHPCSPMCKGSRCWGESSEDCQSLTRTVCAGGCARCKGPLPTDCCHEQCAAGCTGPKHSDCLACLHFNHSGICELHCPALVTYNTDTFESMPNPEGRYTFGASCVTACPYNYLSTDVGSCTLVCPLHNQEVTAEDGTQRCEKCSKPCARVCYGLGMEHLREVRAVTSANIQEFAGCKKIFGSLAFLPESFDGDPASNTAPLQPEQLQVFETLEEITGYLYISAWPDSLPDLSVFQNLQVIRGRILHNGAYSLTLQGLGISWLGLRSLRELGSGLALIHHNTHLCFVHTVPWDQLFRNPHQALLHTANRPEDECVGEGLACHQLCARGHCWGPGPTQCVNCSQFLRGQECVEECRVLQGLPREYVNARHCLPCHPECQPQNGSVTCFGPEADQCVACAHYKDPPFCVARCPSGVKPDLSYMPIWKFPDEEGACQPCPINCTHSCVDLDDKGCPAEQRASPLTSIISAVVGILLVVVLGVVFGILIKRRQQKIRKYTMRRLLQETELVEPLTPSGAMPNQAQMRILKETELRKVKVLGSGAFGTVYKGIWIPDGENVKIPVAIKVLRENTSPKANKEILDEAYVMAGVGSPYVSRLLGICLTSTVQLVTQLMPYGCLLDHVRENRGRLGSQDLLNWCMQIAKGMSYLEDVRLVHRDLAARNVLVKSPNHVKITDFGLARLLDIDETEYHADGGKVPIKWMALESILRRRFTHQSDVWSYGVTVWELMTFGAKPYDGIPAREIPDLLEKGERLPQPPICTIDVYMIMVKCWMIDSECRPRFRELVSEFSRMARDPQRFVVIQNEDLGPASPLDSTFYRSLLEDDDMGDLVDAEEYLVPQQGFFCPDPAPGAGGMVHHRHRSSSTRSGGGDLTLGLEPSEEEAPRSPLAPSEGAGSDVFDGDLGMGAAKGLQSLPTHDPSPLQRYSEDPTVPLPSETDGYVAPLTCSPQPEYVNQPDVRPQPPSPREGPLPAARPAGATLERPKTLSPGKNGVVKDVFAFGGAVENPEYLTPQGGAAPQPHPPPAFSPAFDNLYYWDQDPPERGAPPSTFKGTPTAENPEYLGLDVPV
Test: KINOMEscan competition binding
Conditions: compound 10.0 µM

- item-smiles: "CCCS(=O)(=O)Nc1ccc(F)c(C(=O)c2c[nH]c3ncc(-c4ccc(Cl)cc4)cc23)c1F"
  kinase still bound, per cent of control / %: 100
- item-smiles: "C[C@@H](Oc1cc(-n2cnc3ccc(CN4CCN(C)CC4)cc32)sc1C(N)=O)c1ccccc1C(F)(F)F"
  kinase still bound, per cent of control / %: 68
- item-smiles: "O=C1Nc2ccc(I)cc2/C1=C/c1cc(Br)c(O)c(Br)c1"
  kinase still bound, per cent of control / %: 94
- item-smiles: "O=C(NC1CC1)c1cccc(-c2ccc3c(NC(=O)C4CC4)n[nH]c3c2)c1"
  kinase still bound, per cent of control / %: 100
- item-smiles: "C=CC(=O)Nc1cccc(Oc2nc(Nc3ccc(N4CCN(C)CC4)cc3OC)ncc2Cl)c1"
  kinase still bound, per cent of control / %: 1.8

* * *

Molecular target: PDPK1 (human)
Assay: KINOMEscan competition binding
Conditions: compound 10.0 µM

- item-smiles: "O=C(O)c1ccc(Nc2ncc3c(n2)-c2ccc(Cl)cc2C(c2c(F)cccc2F)=NC3)cc1"
  kinase still bound, per cent of control: "35%"
- item-smiles: "Nc1ccc(-c2ccc3ncc4ccc(=O)n(-c5cccc(C(F)(F)F)c5)c4c3c2)cn1"
  kinase still bound, per cent of control: "100%"
- item-smiles: "Cc1ccc(NC(=O)c2cccc(C(C)(C)C#N)c2)cc1Nc1ccc2ncn(C)c(=O)c2c1"
  kinase still bound, per cent of control: "100%"
- item-smiles: "Cc1ccc2nc(NCCN)c3ncc(C)n3c2c1"
  kinase still bound, per cent of control: "100%"
- item-smiles: "Cc1cc([C@@H](C)Nc2ccccc2C(=O)O)c2nc(N3CCOCC3)cc(=O)n2c1"
  kinase still bound, per cent of control: "100%"
